Biological target: human MCH receptor 1 (MCHR1) (Homo sapiens)
Construct: expressed in transfected cells; host or cells: CHO cell clone 57 (described in WO01/82925); membrane fraction
Sequence (Q99705 whole entry): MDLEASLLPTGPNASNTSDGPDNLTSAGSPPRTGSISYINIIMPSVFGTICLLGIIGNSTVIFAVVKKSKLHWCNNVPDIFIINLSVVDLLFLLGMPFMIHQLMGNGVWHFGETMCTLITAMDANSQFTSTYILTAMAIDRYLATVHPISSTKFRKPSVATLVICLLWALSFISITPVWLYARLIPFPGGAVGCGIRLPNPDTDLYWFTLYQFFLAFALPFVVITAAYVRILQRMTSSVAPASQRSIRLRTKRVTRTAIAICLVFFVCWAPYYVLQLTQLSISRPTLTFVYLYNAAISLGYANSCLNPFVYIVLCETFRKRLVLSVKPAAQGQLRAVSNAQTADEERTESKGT
Test: Human MCH receptor 1 (MCHR1) competitive inhibitory activity using binding assay
Conditions: test compound 0.1 μM; [125I]-MCH (4-19); human MCHR1-expressing CHO cellular membrane fraction; read-out: Binding inhibition rate % (0.1 μM)
Decision: inhibition at 0.1 µM compared against 50%; not below it gives rule met, below it gives rule not met.

Here's what some known entries look like.
Cc1c2cc(-n3ccc(OCc4cccc(Cl)c4)cc3=O)ccc2nn1C [Example 12] :: rule not met
Cc1c2cc(-n3ccc(OCc4cc(C(F)(F)F)cs4)cc3=O)ccc2nn1C [Example 41] :: rule met
Cc1c2cc(-n3ccc(OCc4ccc(Br)s4)cc3=O)ccc2nn1C [Example 27] :: rule met
Cc1c2cc(-n3ccc(OCc4ccc(Cl)cc4)cc3=O)ccc2nn1C [Example 1] :: rule met
Cc1c2cc(-n3ccc(OCc4nc(C(F)(F)F)cs4)cc3=O)ccc2nn1C [Example 38] :: rule not met
Cc1c2cc(-n3ccc(OCc4cc5ccccc5o4)cc3=O)ccc2nn1C [Example 16] :: rule not met
Cc1c2cc(-n3ccc(OCc4ccccc4)cc3=O)ccc2nn1C [Example 9] :: rule not met
Cc1c2cc(-n3ccc(OCc4ccc(Cl)cc4)cc3=O)ccc2nn1C1CC1 [Example 5] :: rule met
Cc1c2cc(-n3ccc(OCc4nc(Br)cs4)cc3=O)ccc2nn1C [Example 30] :: rule not met
Cc1c2cc(-n3ccc(OCc4csc(C(F)(F)F)n4)cc3=O)ccc2nn1C [Example 39] :: rule not met

-- ask Please indicate if the recorded inhibition at 0.1 µM for Cc1c2cc(-n3ccc(OCc4ccc(Cl)cn4)cc3=O)ccc2nn1C1CC1 [Example 18] meets or exceeds 50%.
-- reply rule not met

---

Biological target: human MCHR1 (Homo sapiens)
Construct: expressed in transfected cells; host or cells: CHO dhfr- cells, clone #4
Experiment: MCH receptor 1 antagonistic activity using Ca2+ mobilization assay
Assay type: cell-based
Settings: test compound 0.1 μM; ligand MCH (4-19) 2 nM; human MCHR1-expressing CHO cells (clone #4); read-out: Inhibition rate % (0.1 μM)
Hi there, I'd appreciate the recorded inhibition at 0.1 µM for every entry that follows.
Answers are plain numbers, in %.

Cc1c2cc(-n3ccc(OCc4cc(C(F)(F)F)cs4)cc3=O)ccc2nn1C :: 70

For each of the compounds below, note its inhibition at 0.1 µM.
1. Cc1c2cc(-n3ccc(OCc4ccc(Cl)cn4)cc3=O)ccc2nn1C1CC1
2. Cc1c2cc(-n3ccc(OCc4nc(C(F)(F)F)cs4)cc3=O)ccc2nn1C
3. Cc1c2cc(-n3ccc(OCc4ccc(C(F)(F)F)s4)cc3=O)ccc2nn1C
4. Cc1c2cc(-n3ccc(OCc4ccc(Cl)cc4)cc3=O)ccc2nn1C

-- reply
1. 63
2. 78
3. 51
4. 83

---

Target: human MCHR1 (Homo sapiens, UniProt Q99705)
Construct: expressed in transfected cells; host or cells: CHO dhfr- cells, clone #4
Sequence (Q99705 whole entry): as above
Test: MCH receptor 1 antagonistic activity using Ca2+ mobilization assay
Format: cell-based
Conditions: test compound 0.1 μM; ligand MCH (4-19) 2 nM; human MCHR1-expressing CHO cells (clone #4); read-out: Inhibition rate % (0.1 μM)
Description: Measurement of MCH Receptor 1 Antagonistic Activity of Test Compound Using Ca^2+ Mobilization Assay Using an expression vector plasmid introduced with human MCHR1 gene for expression in animal cells, human MCHR1 gene was introduced into CHO cells (CHO dhfr^−) by Lipofectamine LTX (Invitrogen). […] The plate was set on a plate reader. […]
Mark not met for inhibition at 0.1 µM values under 70%, and met for everything at or above.

-- ask Test whether the compound Cc1c2cc(-n3ccc(OCc4ccccc4)cc3=O)ccc2nn1C1CC1 [Example 7] records inhibition at 0.1 µM of 70% or higher.
-- reply not met

-- ask Reported inhibition at 0.1 µM reaches at least 70% for Cc1c2cc(-n3ccc(OCc4cccc(Cl)c4)cc3=O)ccc2nn1C [Example 12] ?
-- reply not met

-- ask Determine whether measured inhibition at 0.1 µM meets or exceeds 70% for Cc1c2cc(-n3ccc(OCc4csc(C(F)(F)F)n4)cc3=O)ccc2nn1C1CC1 [Example 46]
-- reply met

-- ask Confirm if inhibition at 0.1 µM reported for the compound CCn1nc2ccc(-n3ccc(OCc4ccc(Cl)cc4)cc3=O)cc2c1C [Example 2] is 70% or above.
-- reply met

---

Test system: male diet-induced obese F344/Jcl rats
Assay: Anorectic effect using male diet-induced obese F344/Jcl rats
Format: in vivo, rat
Settings: oral, 5 mg/mL suspension in 0.5% methylcellulose at 2 mL/kg, two administrations; food intake for 2 days vs control group
Parameter threshold = 30%. Response is yes when Food intake suppression rate (%) meets or exceeds it, else no.

Solved entries:
Cc1c2cc(-n3ccc(OCc4ccc(Br)cc4)cc3=O)ccc2nn1C :: yes
Cc1c2cc(-n3ccc(OCc4ccc(F)cc4)cc3=O)ccc2nn1C1CC1 :: no
Cc1c2cc(-n3ccc(OCc4ccc(Cl)cc4)cc3=O)ccc2nn1C :: yes
Cc1c2cc(-n3ccc(OCc4csc(C(F)(F)F)n4)cc3=O)ccc2nn1C1CC1 :: no

Here is the next item to consider.
-- ask Assess whether reported Food intake suppression rate (%) for Cc1c2cc(-n3ccc(OCc4csc(C(F)(F)F)c4)cc3=O)ccc2nn1C sits at 30% or higher.
-- reply yes

---

Target: human MCH receptor 1 (MCHR1) (Homo sapiens)
Construct: expressed in transfected cells; host or cells: CHO cell clone 57 (described in WO01/82925); membrane fraction
Test: Human MCH receptor 1 (MCHR1) competitive inhibitory activity using binding assay
Settings: test compound 0.1 μM; [125I]-MCH (4-19); human MCHR1-expressing CHO cellular membrane fraction; read-out: Binding inhibition rate % (0.1 μM)
Experimental: Determination of Human MCH Receptor 1 (MCHR1) Competitive Inhibitory Activity of Test Compound Using Binding Assay 1. Preparation of Membrane Fraction […] The MCHR1 ligand binding inhibitory activity of the test compound was determined as follows. The mixture was reacted with stirring at room temperature for 1 hr, and the plate was set on FilterMate Harvester (PerkinElmer). […] The binding inhibition rate of the test compound was calculated by the following formula. […]
readout label: inhibition at 0.1 µM (%)
One number for each entry, in %.

Consider the following illustrative entries.
Cc1c2cc(-n3ccc(OCc4ccc(C(F)(F)F)s4)cc3=O)ccc2nn1C1CC1 :: 49
CCCn1nc2ccc(-n3ccc(OCc4ccc(Cl)cc4)cc3=O)cc2c1C :: 37
Cc1c2cc(-n3ccc(OCc4ccc(Br)cn4)cc3=O)ccc2nn1C :: 57
CCn1nc2ccc(-n3ccc(OCc4nc(C(F)(F)F)cs4)cc3=O)cc2c1C :: 37
Cc1c2cc(-n3ccc(OCc4ccc(F)cc4)cc3=O)ccc2nn1C1CC1 :: 72

List reported inhibition at 0.1 µM for each of these molecules:
1. Cc1c2cc(-n3ccc(OCc4csc(C(F)(F)F)c4)cc3=O)ccc2nn1C1CC1
2. Cc1c2cc(-n3ccc(OCc4ccc(Br)cc4)cc3=O)ccc2nn1C
3. Cc1c2cc(-n3ccc(OCc4ccc(Cl)s4)cc3=O)ccc2nn1C1CC1

-- reply
77
57
68

-- ask I'd like to know its inhibition at 0.1 µM. The molecule in question is Cc1c2cc(-n3ccc(OCc4csc(C(F)(F)F)n4)cc3=O)ccc2nn1C1CC1
-- reply 50

Numbers sourced from patent US9199963B2.
